Target: T1, human soluble urokinase plasminogen activator receptor (suPAR) (human, UniProt Q03405 23-303, limits assumed)
T1 construct: also called hsuPAR; human suPAR
T1 sequence (Q03405 23-303 limits assumed): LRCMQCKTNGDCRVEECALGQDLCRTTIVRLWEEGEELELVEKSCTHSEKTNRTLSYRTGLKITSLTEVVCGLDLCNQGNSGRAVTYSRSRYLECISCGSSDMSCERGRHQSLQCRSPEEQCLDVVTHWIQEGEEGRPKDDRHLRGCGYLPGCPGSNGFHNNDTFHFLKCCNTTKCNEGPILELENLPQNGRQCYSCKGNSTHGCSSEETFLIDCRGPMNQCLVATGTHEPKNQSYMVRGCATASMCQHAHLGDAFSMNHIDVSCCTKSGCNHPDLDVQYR
Assay: dissociation rate (kdis) on human suPAR; method not stated
ENDPOINT: koff (s⁻¹)

WAb0019 (antibody, V domains shown, constant regions not tied to this antibody; also called WAb CD0019) VH: QVQLVQSGAEVKKPGASVKVSCKASGYTFSSYYMHWVRQAPGQGLEWMGWIDHENGNTIYAQKFQGRVTMTRDTSTSTVYMELSSLRSEDTAVYYCARGYDVDWFVYWGQGTLVTVSS VL: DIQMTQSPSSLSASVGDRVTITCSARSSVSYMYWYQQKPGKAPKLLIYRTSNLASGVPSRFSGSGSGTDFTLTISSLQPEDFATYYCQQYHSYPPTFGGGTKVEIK :: 3.43e-07
WAb0004 (antibody, V domains shown, constant regions not tied to this antibody; also called WAb CD0004) VH: QVQLVQSGAEVKKPGASVKVSCKASGFNIKDYYIHWVRQAPGQGLEWMGWIDPESGSTIYDQKFQGRVTMTRDTSTSTVYMELSSLRSEDTAVYYCARGYDIDWFVYWGQGTLVTVSS VL: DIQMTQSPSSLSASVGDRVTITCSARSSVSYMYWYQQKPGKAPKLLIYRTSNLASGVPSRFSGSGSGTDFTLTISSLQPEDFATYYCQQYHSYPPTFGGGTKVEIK :: 2.61e-07
WAb0010 (antibody, V domains shown, constant regions not tied to this antibody; also called WAb CD0010) VH: QVQLVQSGAEVKKPGASVKVSCKASGYTFTGNYVHWVRQAPGQGLEWMGWIDHENGNTIYDQKFQGRVTMTRDTSTSTVYMELSSLRSEDTAVYYCARGYDVDWFVYWGQGTLVTVSS VL: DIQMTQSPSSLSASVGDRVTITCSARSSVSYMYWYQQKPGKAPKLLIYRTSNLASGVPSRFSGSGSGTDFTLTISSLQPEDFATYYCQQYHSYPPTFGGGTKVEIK :: 3.89e-07
WAb0020 (antibody, V domains shown, constant regions not tied to this antibody; also called WAb CD0020) VH: QVQLVQSGAEVKKPGASVKVSCKASGYTFTSHYVHWVRQAPGQGLEWMGWIDHENGNTIYDQKFQGRVTMTRDTSTSTVYMELSSLRSEDTAVYYCARGYDVDWFVYWGQGTLVTVSS VL: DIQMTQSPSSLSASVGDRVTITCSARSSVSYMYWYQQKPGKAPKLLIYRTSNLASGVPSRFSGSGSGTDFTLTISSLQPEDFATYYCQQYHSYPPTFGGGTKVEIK :: 3.42e-07
WAb0012 (antibody, V domains shown, constant regions not tied to this antibody; also called WAb CD0012) VH: QVQLVQSGAEVKKPGASVKVSCKASGYTFTGYYMHWVRQAPGQGLEWMGWIDHENGNTIYDQKFQGRVTMTRDTSTSTVYMELSSLRSEDTAVYYCARGYDVDWFVYWGQGTLVTVSS VL: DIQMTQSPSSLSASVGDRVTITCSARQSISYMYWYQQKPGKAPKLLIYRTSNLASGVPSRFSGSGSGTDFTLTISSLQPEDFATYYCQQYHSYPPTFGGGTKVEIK :: 2.93e-07
